# EXPERIMENT_DESCRIPTION: in vitro
# Format: cell-based, human
# ASSAY_SETUP: human; HuOB, single phytocannabinoid 25 μM, daily, 72 hours, vs vehicle; read-out: % VIABILITY ± S.D.
METRIC_NAME: viability at 72 h, 25 μM
Just the number plus its unit, please.

Solved cases (3 shown):
[[record]]
compound = "CCCCCc1cc(O)c(C/C=C(\\C)CCC=C(C)C)c(O)c1"
metric_name = "viability at 72 h, 25 μM"
result = "96.4%"

[[record]]
compound = "CCCCCc1cc(O)c2c(c1)OC(C)(C)c1ccc(C)cc1-2"
metric_name = "viability at 72 h, 25 μM"
result = "81.7%"

[[record]]
compound = "CCCCCc1cc(O)c2c(c1)OC(C)(CCC=C(C)C)C=C2 (stereo not shown)"
metric_name = "viability at 72 h, 25 μM"
result = "99.8%"


Kindly review the next compound as well.
(Q) Can you look up the measured viability at 72 h, 25 μM of C=C(C)[C@@H]1CCC(C)=C[C@H]1c1c(O)cc(CCC)cc1O for me?
(A) 21.2%
